tested.target: Alpha-glucosidase MAL62 (Saccharomyces cerevisiae, UniProt P07265)
Sequence (P07265 whole entry): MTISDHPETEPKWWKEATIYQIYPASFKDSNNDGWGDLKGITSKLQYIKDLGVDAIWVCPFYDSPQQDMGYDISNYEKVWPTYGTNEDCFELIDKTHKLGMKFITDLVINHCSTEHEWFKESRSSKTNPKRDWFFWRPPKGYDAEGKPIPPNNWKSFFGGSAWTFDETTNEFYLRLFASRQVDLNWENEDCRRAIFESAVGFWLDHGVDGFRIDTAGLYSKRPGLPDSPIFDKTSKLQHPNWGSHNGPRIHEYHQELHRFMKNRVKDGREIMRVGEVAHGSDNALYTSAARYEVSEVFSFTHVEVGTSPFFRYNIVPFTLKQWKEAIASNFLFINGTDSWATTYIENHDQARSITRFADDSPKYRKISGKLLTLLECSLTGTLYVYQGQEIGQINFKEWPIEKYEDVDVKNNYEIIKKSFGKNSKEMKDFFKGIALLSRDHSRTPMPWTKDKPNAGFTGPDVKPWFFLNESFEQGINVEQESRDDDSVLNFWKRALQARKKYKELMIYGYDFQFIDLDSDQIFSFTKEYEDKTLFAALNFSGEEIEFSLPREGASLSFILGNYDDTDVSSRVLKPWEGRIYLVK
parameter: IC50 (µM)

# count of solved cases: 2
>>> obs_value("COc1ccc(/C=C/C(=O)O)cc1")
40
>>> obs_value("OC[C@H]1OC(OC2=C(c3ccc(O)c(O)c3)Oc3cc(O)cc(O)c3C2)[C@@H](O)[C@@H](O)[C@@H]1O (stereo partly specified)")
20

A: CC1(C)C=Cc2cc(C(=O)/C=C/c3ccc(O)c(O)c3)c(O)cc2O1
B: O=C(O)/C=C/c1ccc(O)cc1
[Q] Which of the two items, A and B , has the greater recorded IC50? Please identify the chosen entry by its label.
[A] B
(B: 200 µM, A: 19.1 µM)

----------
tested.target: Alpha-glucosidase MAL62 (Saccharomyces cerevisiae, UniProt P07265)
pIC50: −log10 of the molar value.
parameter: pIC50

# count of solved cases: 5
>>> obs_value("C=C(C)C(CC=C(C)C)Cc1c(O)cc(O)c2c1OC(c1ccccc1O)CC2=O (centres undefined)")
4.35
>>> obs_value("O=c1c(O)c(-c2cc(O)c(O)c(O)c2)oc2cc(O)cc(O)c12")
5.30
>>> obs_value("CC(C)=CCc1cc(C(=O)/C=C/c2ccc(O)c(O)c2)c(O)cc1O")
5.28
>>> obs_value("Oc1cc(O)c2c(c1)O[C@H](c1cc(O)c(O)c(O)c1)[C@H](O)C2")
4.13
>>> obs_value("O=C(O)c1cc(O)c(O)c(O)c1")
5.28

a: C=CC(C)(C)c1c(O)cc(O)c2c(=O)c3oc4c(CC=C(C)C)c(O)c(OCC=C(C)C)cc4c3oc12
b: O=c1c(-c2ccc(O)cc2)coc2cc(O)cc(O)c12
c: C=C(C)C(CCC(C)(C)O)Cc1c(O)cc(OC)c2c1OC(c1ccc(O)cc1O)CC2=O (centres undefined)
[Q] Rank ascending by pIC50. Would you mind listing the labels in the order requested?
[A] c, a, b

----------
tested.target: Alpha-glucosidase MAL62 (Saccharomyces cerevisiae, UniProt P07265)
parameter: IC50 (µM)

# count of solved cases: 5
>>> obs_value("O=c1cc(O)cc2oc(-c3ccc(O)c(O)c3)c(O)cc1-2")
4
>>> obs_value("O=c1c(O)c(-c2ccc(O)cc2)oc2cc(O)cc(O)c12")
12
>>> obs_value("CC1(C)C=Cc2cc(C(=O)/C=C/c3ccc(O)cc3)c(O)cc2O1 [4-HYDROXYISOLONCHOCARPIN]")
12.3
>>> obs_value("C=C(C)C(CC=C(C)C)Cc1c(O)cc(O)c2c1OC(c1ccc(O)cc1O)CC2=O (stereo not given)")
37
>>> obs_value("O=c1cc(-c2ccc(O)c(O)c2)oc2cc(O)cc(O)c12")
21

a: O=c1c(O)c(-c2ccc(O)c(O)c2)oc2cc(O)ccc12
b: CCOC(=O)/C=C/c1ccc(OC)cc1 [4-Methoxy Ethyl Cinnamate]
c: C=CC(C)(C)c1c(O)cc(O)c2c(=O)c(O)c(-c3cc(O)c(O)c(CC=C(C)C)c3)oc12
[Q] Rank ascending by IC50. Would you mind listing the labels in the order requested?
[A] c, a, b
